- System: HL-60(TB) leukemia
- ASSAY_TEXT: NCI tumour cell line growth inhibition, 48 h
I'd be grateful if you could share measured GI50 for these entries.

Study these solved cases before continuing.
>  <COMPOUND>
O=C(COc1cccc(/C=C2\Oc3ccc4ccccc4c3C2=O)c1)c1ccc([N+](=O)[O-])cc1

>  <EXPERIMENTAL_TARGET>
HL-60(TB) leukemia

>  <MEASURED_METRIC>
GI50

>  <TEST_VALUE>
62.7 µM

$$$$
>  <COMPOUND>
NCCCNc1nc2ccccc2c2c(=O)c3cc(F)cc(Cl)c3sc12

>  <EXPERIMENTAL_TARGET>
HL-60(TB) leukemia

>  <MEASURED_METRIC>
GI50

>  <TEST_VALUE>
2.45 µM

$$$$
>  <COMPOUND>
O=C(CC1Sc2ccccc2NC1=O)NNc1ccc(F)cc1 (stereo not given)

>  <EXPERIMENTAL_TARGET>
HL-60(TB) leukemia

>  <MEASURED_METRIC>
GI50

>  <TEST_VALUE>
7.9 µM

$$$$

Please supply GI50 for each of the following items, keeping them in order.
1. CCCCC[C@H]1C/C=C2/C(=O)C(Cl)=C[C@@H]2C/C=C\CCCC(=O)O1
2. CC1(C)CN(CCNc2nccc(-c3c(-c4cccc(O)c4)nc4sccn34)n2)S(=O)(=O)N1

Response:
0.565 µM
10.2 µM
